What BAF3-FGFR1 (MIN IL3 pIC50) was measured for each of the following?
assayed_target: Ba/F3-FGFR1-transfected cells (Homo sapiens, UniProt P11362, cells depend on it, form not given)
Construct: other: minus IL3; 24 hours, Alamar Blue
Sequence (P11362 whole entry, change not shown): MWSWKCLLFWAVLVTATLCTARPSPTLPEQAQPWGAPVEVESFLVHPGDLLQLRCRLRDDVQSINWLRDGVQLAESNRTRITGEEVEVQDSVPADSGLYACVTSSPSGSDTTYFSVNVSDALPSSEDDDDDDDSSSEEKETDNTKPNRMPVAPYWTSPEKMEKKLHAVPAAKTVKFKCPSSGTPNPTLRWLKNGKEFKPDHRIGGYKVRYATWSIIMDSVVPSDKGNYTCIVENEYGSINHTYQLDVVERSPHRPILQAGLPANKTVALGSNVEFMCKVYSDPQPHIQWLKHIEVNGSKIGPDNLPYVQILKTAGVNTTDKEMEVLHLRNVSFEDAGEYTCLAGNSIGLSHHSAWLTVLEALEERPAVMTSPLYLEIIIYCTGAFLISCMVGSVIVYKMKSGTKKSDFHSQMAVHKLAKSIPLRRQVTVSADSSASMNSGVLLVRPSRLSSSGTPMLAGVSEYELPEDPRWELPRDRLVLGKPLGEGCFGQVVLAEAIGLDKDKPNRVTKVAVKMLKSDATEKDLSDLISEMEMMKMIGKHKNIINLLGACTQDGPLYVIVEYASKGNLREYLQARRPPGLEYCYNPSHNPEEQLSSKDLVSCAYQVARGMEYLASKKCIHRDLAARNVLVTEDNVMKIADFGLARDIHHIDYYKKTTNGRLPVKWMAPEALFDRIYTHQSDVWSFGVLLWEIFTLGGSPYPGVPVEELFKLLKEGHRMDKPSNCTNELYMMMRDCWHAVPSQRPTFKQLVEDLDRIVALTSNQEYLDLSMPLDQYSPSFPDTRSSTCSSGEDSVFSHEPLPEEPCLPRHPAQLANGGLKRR
run_description: Ba/F3-FGFR1 (minus IL3 or plus IL3) cellular proliferation assay, Alamar Blue
Format: cell-based
condition_label: minus IL3, 24 hours

Lab note: `COc1cc(OC)cc(N(Cc2ncc[nH]2)c2ccc3ncc(-c4ccn(C)c4)cc3c2)c1` gave BAF3-FGFR1 (MIN IL3 pIC50) of 6.63

Lab note: `COc1cc(OC)cc(N(CCNC(C)C)c2ccc3ncc(-c4cn[nH]c4)cc3c2)c1` gave BAF3-FGFR1 (MIN IL3 pIC50) of 7.55

Lab note: `C#CCN(c1cc(OC)cc(OC)c1)c1ccc2ncc(-c3cnn(C)c3)cc2c1` gave BAF3-FGFR1 (MIN IL3 pIC50) of 5.7

Lab note: `COc1cc(OC)cc(N(Cc2nccn2S(=O)(=O)N(C)C)c2ccc3ncc(-c4ccncc4)cc3c2)c1` gave BAF3-FGFR1 (MIN IL3 pIC50) of ~5.86

* * *

What BAF3-FLT3 (MIN IL3 Alamar Blue pIC50) was measured for each of the following?
assayed_target: Ba/F3-Flt3-transfected cells (Homo sapiens, UniProt P36888, cells depend on it, form not given)
Construct: BAF3-FLT3 (MIN IL3 Alamar Blue pIC50); other: minus IL3; 24 hours, Alamar Blue
run_description: Ba/F3-Flt3 (minus IL3 or plus IL3) cellular proliferation assay, Alamar Blue
Type: cell-based
condition_label: minus IL3, 24 hours
# output: bare number, no unit

Lab note: COc1cc(OC)cc(N(CCNC(C)C)c2ccc3ncc(-c4cnn(C5CCCCO5)c4)cc3c2)c1 (stereo not drawn) gave BAF3-FLT3 (MIN IL3 Alamar Blue pIC50) of 5.22

Lab note: COc1cc(OC)cc(N(CCCN2CCCC2CNS(=O)(=O)C(F)(F)F)c2ccc3ncc(-c4cnn(C)c4)cc3c2)c1 (stereo not drawn) gave BAF3-FLT3 (MIN IL3 Alamar Blue pIC50) of 5.14

Lab note: `COc1cc(OC)cc(N(CCCO)c2ccc3ncc(-c4cnn(C)c4)cc3c2)c1` gave BAF3-FLT3 (MIN IL3 Alamar Blue pIC50) of 5.35

Lab note: `COc1cc(OC)cc(N(CCO)c2ccc3ncc(-c4cnn(C)c4)cc3c2)c1` gave BAF3-FLT3 (MIN IL3 Alamar Blue pIC50) of 5.52

Lab note: `COc1cc(OC)c(F)c(N(CC#Cc2ncccc2OC)c2ccc3ncc(-c4cnn(C)c4)cc3c2)c1` gave BAF3-FLT3 (MIN IL3 Alamar Blue pIC50) of 5.16

Lab note: `CNCCN(c1ccc2ncc(-c3cnn(C)c3)cc2c1)c1c(F)c(OC)cc(OC)c1F` gave BAF3-FLT3 (MIN IL3 Alamar Blue pIC50) of 5.24

* * *

assayed_target: UniProt:P21802
Sequence (P21802 22-821): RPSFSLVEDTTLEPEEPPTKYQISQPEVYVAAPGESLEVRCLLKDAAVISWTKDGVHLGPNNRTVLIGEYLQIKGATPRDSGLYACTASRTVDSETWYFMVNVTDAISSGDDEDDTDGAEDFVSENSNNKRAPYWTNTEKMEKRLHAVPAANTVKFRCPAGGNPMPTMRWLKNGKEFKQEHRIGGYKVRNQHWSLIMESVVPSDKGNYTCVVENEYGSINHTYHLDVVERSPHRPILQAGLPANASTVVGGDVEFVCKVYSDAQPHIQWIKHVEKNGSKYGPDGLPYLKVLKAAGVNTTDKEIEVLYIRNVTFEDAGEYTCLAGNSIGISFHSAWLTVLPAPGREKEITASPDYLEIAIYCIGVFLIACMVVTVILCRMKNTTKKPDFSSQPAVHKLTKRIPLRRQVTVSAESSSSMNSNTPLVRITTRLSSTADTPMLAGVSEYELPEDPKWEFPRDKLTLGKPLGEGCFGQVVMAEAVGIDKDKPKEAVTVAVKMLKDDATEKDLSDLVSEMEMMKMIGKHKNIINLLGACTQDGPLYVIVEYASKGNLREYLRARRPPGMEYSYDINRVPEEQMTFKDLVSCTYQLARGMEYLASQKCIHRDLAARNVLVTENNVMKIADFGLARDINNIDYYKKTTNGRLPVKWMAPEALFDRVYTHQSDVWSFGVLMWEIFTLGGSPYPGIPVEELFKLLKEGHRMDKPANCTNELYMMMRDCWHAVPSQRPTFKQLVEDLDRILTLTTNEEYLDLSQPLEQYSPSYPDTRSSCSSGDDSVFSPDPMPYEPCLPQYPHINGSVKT
run_description: FGFR2 (enzymatic assay), TR-FRET
Type: biochemical
condition_label: 0.4 μM ATP, 60 min; pIC50 = -log IC50 (M); average if tested multiple times; read-out: FGFR 2 pIC50 (converted)
What IC50 was measured for each of the following?
Respond with the bare value in M.

Lab note: COc1cc(OC)cc(N(CC2CCC(=O)N2)c2ccc3ncc(-c4cnn(C)c4)cc3c2)c1 (stereo not shown) [Compound 44] gave IC50 of 3.24e-09

Lab note: COc1cc(OC)cc(C(CC(N)=O)c2ccc3ncc(-c4cnn(C)c4)cc3c2)c1 (stereo not shown) [Compound 40] gave IC50 of 3.02e-07

Lab note: COc1cc(OC)cc(N(CCNC(C)C)c2ccc3ncc(-c4cnn(C5CCCCO5)c4)cc3c2)c1 (stereo not shown) [Compound 22] gave IC50 of 3.89e-09

Lab note: COc1cc(Nc2ccc3ncc(-c4cnn(C5CCCCO5)c4)cc3c2)cc(OC)c1 (stereo not shown) [Int. 8] gave IC50 of 3.72e-08

The reported measurements were obtained from patent US10039759B2.
